molecular target: human EP4 receptors (Homo sapiens, UniProt P35408); construct: expressed in transfected cells; host or cells: Chinese Hamster Ovary (CHO) cells infected with Semliki Forest Virus carrying an SFV-1 RNA construct with the hEP4 receptor; membranes were prepared from these cells; test: Human EP4 Scintillation Proximity Assay (SPA), [3H]-prostaglandin E2 competition binding
Sequence (P35408 whole entry): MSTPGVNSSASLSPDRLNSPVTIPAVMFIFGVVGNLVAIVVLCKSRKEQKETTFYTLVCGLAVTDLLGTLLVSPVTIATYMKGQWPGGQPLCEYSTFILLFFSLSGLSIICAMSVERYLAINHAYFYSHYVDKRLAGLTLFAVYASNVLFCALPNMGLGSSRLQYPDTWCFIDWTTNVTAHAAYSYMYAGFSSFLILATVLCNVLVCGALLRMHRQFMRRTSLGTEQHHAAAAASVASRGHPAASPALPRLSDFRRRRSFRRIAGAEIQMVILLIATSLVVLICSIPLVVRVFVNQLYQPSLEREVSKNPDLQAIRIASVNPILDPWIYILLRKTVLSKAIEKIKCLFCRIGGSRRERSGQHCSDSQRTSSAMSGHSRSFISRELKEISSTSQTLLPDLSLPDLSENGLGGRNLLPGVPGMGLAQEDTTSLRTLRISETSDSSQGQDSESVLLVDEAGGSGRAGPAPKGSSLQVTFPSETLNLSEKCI
ASSAY_METRIC: Ki (nM)
One number for each entry, in nM.

Using the record for CCOc1c2c(c(OCC)c3ccccc13)C(=O)N(c1ccc(CC(=O)O)cc1)C2 , report its Ki.
100
